# maps each entry to its AIRE transcriptional activation functional score
B1: library; numbered along this chain (parent)
chain: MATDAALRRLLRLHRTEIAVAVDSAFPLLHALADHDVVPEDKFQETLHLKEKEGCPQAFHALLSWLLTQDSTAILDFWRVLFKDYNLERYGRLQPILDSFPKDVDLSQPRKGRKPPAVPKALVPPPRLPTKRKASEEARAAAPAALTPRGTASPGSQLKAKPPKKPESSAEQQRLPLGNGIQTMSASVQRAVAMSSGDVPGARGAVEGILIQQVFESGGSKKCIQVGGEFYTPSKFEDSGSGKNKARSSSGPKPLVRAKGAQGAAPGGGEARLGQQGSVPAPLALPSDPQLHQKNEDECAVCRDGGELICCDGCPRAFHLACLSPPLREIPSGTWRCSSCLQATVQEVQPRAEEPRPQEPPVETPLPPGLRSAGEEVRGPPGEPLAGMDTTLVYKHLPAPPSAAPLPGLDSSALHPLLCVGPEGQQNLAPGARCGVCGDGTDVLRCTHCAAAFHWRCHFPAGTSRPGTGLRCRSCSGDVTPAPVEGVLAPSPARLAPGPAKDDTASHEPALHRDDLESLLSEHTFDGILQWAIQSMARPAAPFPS

# Variants of: B1
# assay: AIRE transcriptional activation functional score (insulin promoter-GFP; nonsense median 0, synonymous median 1) (normalised score); higher = higher AIRE activity (more reporter activation)
# condition-context: with insulin promoter-GFP reporter in HEK293
# output: bare number, no unit

change | meas-value
P119Q | 1.02
R336A | 1.02

Okay, next one:
Find the measured AIRE transcriptional activation functional score of G201N and report it.
1.01

Cited source for all entries: the supplement of paper PMC12667976
